Items are presented alongside their recorded pIC50.
# Tested on: M. tuberculosis H37Rv growth inhibition
# ASSAY_INFO: M. tuberculosis H37Rv growth inhibitors, H37Rv strain (AID 1626)
pIC50: −log10 of the molar value.

Below, each entry is followed by its recorded pIC50 result.
| COMPOUND | RESULT |
| --- | --- |
| CCOC(=O)N1CCN(c2nc(N(c3ccccc3)c3ccccc3)nc(-n3ccnc3)n2)CC1 | 5.05 |
| COc1ccc(C[C@H]2CN3C(=NC[C@@H]3Cc3ccccc3)N2CCNC(=O)CCC2CCCCC2)cc1 | 5.04 |
| CCOC(=O)COc1ccc2ccccc2c1/C=C/[N+](=O)[O-] | 5.52 |

Find pIC50 (M. tuberculosis H37Rv growth inhibition) for the entry Nc1nc(Nc2cccc(Cl)c2)nc(NCc2ccco2)c1[N+](=O)[O-]
4.52

Input COc1cccc(CNc2cnc3ccccc3c2)c1O
4.54
